# Tested on: MOLM1 and UCSD/AML1 (averaged)
# method-summary: cell viability relative to DMSO control (POC); higher = less growth inhibition
# cond: 1 µM; 72 h
Among all 2,100 compounds or so, about 180 (8.6%) showed an effect of 50% or more. Only a selection was taken, and strong results are over-represented in it overall.
experimental-readout: cell viability

compound	experimental-readout	data-value
COc1ccc2c(c1)OCc1c-2oc2cc(OC)ccc12	cell viability	99%
N=C(N)NC(=N)Nc1ccccc1	cell viability	99.7%
Cc1cnc(Nc2ccc(OCCN3CCCC3)cc2)nc1Nc1cccc(S(=O)(=O)NC(C)(C)C)c1	cell viability	13%
COC1=CC(=O)C=C(OC)C1=O	cell viability	91.5%
COc1ccc(-c2coc3cc(O)ccc3c2=O)c(O)c1O	cell viability	99.7%
CC(=O)N[C@@H](Cc1c[nH]c2ccccc12)C(N)=O	cell viability	101%
CC[C@@H]1C(=O)N(C)c2cnc(Nc3ccc(C(=O)NC4CCN(C)CC4)cc3OC)nc2N1C1CCCC1	cell viability	13.2%
O=C(Cc1cccs1)N[C@@H]1C(=O)N2C(C(=O)[O-])=C(C[n+]3ccccc3)CS[C@H]12	cell viability	96.4%
O=c1c(O)c(-c2ccc(O)c(O)c2)oc2c(O[C@@H]3O[C@H](CO)[C@@H](O)[C@H](O)[C@H]3O)c(O)cc(O)c12	cell viability	91.3%
CC1(C)C(O[C@@H]2OC[C@@H](O)[C@H](O)[C@H]2O)CC[C@]23CC24CC[C@]2(C)[C@@H]([C@@]5(C)CC[C@@H](C(C)(C)O)O5)[C@H](O)C[C@@]2(C)C4C[C@@H](O[C@@H]2O[C@H](CO)[C@@H](O)[C@H](O)[C@H]2O)C13 (stereo not given in full)	cell viability	91.9%
